Ref: patent US8580747B2

- assayed-target: NEP (neutral endopeptidase) (Homo sapiens, UniProt P08473)
- Construct: purchased R&D Systems, Minneapolis, Minn; 1182-ZN
- Sequence (P08473 52-750 limits assumed): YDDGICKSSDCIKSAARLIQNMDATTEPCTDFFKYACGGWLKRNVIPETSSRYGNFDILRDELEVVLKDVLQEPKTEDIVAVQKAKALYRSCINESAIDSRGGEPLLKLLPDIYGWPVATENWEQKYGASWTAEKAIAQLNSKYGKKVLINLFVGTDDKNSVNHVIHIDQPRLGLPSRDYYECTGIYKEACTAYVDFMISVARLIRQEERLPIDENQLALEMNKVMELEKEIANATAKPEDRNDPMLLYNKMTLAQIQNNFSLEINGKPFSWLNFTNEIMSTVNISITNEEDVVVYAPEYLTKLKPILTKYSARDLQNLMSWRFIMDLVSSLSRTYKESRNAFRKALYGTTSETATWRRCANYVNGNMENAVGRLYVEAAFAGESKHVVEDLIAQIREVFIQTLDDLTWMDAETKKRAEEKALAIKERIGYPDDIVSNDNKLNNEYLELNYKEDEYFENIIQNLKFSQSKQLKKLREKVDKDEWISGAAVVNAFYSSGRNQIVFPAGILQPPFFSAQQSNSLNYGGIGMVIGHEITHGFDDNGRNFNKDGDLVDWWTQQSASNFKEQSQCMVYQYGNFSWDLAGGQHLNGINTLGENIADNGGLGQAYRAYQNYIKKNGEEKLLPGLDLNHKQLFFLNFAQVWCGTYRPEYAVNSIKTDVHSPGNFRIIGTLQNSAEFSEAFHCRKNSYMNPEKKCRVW
- procedure-summary: hNEP resistance assay (digestion by neutral endopeptidase)
- Type: in vitro ADME
- run-parameters: human, isolated enzyme neprilysin, pH 7.4
- Protocol: NEP resistance of various constructs of the invention was evaluated using the following experimental procedure. All constructs were diluted in 0.1 M Tris-HCL buffer (pH 7.4) to 100 μM. 40 μL of diluted constructs were added to each tube and all tubes were kept on ice. […] The extent to which NEP was active against the constructs was then analyzed by HPLC and/or LC/MS. […]
Bridge positions count the residues as written; N and C are the ends. Square brackets hold non-standard residues; d marks the D form. Peptide text beside a SMILES is read from it. * marks the point of attachment. Piperazin2one(3S-Bu,6R-CO) = CCCC[C@@H]1NC[C@H](C(=O)*)NC1=O; X2 = N=C(N)NCCC[C@@H]1C(=O)N[C@@H](C(N)=O)CN1*; X1 = N=C(N)NCCC[C@H]1C(=O)N[C@@H](C(N)=O)CN1*; dNle = CCCC[C@@H](N)C(=O)O; Nle = CCCC[C@H](N)C(=O)O

- compound: "CCCC[C@@H]1NC[C@H](C(=O)N[C@H]2CSSC[C@@H](C(=O)N[C@@H](Cc3ccc(O)cc3)C(=O)N3C[C@H](C(N)=O)NC(=O)[C@@H]3CCCNC(=N)N)NC(=O)[C@H](CO)NC(=O)[C@H]([C@@H](C)CC)NC(=O)[C@H](CCCNC(=N)N)NC(=O)[C@H](CC(=O)O)NC(=O)[C@@H](CCCC)NC(=O)[C@H](CCCNC(=N)N)NC(=O)CNC(=O)CNC(=O)[C@H](Cc3ccccc3)NC(=O)[C@H](Cc3c[nH]cn3)NC2=O)NC1=O [1-43] ({Piperazin2one(3S-Bu,6R-CO)}-CHFGGR[dNle]DRISCY-X1; disulfide 1-12)"
  remaining at 1 h, 50 µM [%]: 97
- compound: "CCCC[C@@H]1NC[C@H](C(=O)N[C@H]2CSSC[C@@H](C(=O)N[C@@H](Cc3ccc(O)cc3)C(=O)N3C[C@H](C(N)=O)NC(=O)[C@H]3CCCNC(=N)N)NC(=O)[C@H](CO)NC(=O)[C@H]([C@@H](C)CC)NC(=O)[C@@H](CCCNC(=N)N)NC(=O)[C@H](CC(=O)O)NC(=O)[C@H](CCCC)NC(=O)[C@@H](CCCNC(=N)N)NC(=O)CNC(=O)CNC(=O)[C@H](Cc3ccccc3)NC(=O)[C@H](Cc3c[nH]cn3)NC2=O)NC1=O [1-118] ({Piperazin2one(3S-Bu,6R-CO)}-CHFGG[dR][Nle]D[dR]ISCY-X2; disulfide 1-12)"
  remaining at 1 h, 50 µM [%]: 96
- compound: "CCCC[C@@H]1NC[C@H](C(=O)N[C@H]2CSSC[C@@H](C(=O)N[C@@H](Cc3ccc(O)cc3)C(=O)N3C[C@H](C(N)=O)NC(=O)[C@@H]3CCCNC(=N)N)NC(=O)[C@H](CO)NC(=O)[C@H]([C@@H](C)CC)NC(=O)[C@H](CCCNC(=N)N)NC(=O)[C@H](CC(=O)O)NC(=O)[C@H](CCCC)NC(=O)[C@H](CCCNC(=N)N)NC(=O)CNC(=O)CNC(=O)[C@H](Cc3ccccc3)NC(=O)[C@H](Cc3c[nH]cn3)NC2=O)NC1=O [1-18] ({Piperazin2one(3S-Bu,6R-CO)}-CHFGGR[Nle]DRISCY-X1; disulfide 1-12)"
  remaining at 1 h, 50 µM [%]: 91
- compound: "CCCC[C@@H]1NC[C@H](C(=O)N[C@H]2CSSC[C@@H](C(=O)N[C@@H](Cc3ccc(O)cc3)C(=O)N3C[C@H](C(N)=O)NC(=O)[C@@H]3CCCNC(=N)N)NC(=O)[C@H](CO)NC(=O)[C@H]([C@@H](C)CC)NC(=O)[C@H](CCCNC(=N)N)NC(=O)[C@@H](CC(=O)O)NC(=O)[C@H](CCCC)NC(=O)[C@H](CCCNC(=N)N)NC(=O)CNC(=O)CNC(=O)[C@H](Cc3ccccc3)NC(=O)[C@H](Cc3c[nH]cn3)NC2=O)NC1=O [1-44] ({Piperazin2one(3S-Bu,6R-CO)}-CHFGGR[Nle][dD]RISCY-X1; disulfide 1-12)"
  remaining at 1 h, 50 µM [%]: 93
- compound: "CCCC[C@@H]1NC[C@H](C(=O)N[C@H]2CSSC[C@@H](C(=O)N[C@H](Cc3ccc(O)cc3)C(=O)N3C[C@H](C(N)=O)NC(=O)[C@@H]3CCCNC(=N)N)NC(=O)[C@H](CO)NC(=O)[C@H]([C@@H](C)CC)NC(=O)[C@H](CCCNC(=N)N)NC(=O)[C@H](CC(=O)O)NC(=O)[C@H](CCCC)NC(=O)[C@H](CCCNC(=N)N)NC(=O)CNC(=O)CNC(=O)[C@H](Cc3ccccc3)NC(=O)[C@H](Cc3c[nH]cn3)NC2=O)NC1=O [1-53] ({Piperazin2one(3S-Bu,6R-CO)}-CHFGGR[Nle]DRISC[dY]-X1; disulfide 1-12)"
  remaining at 1 h, 50 µM [%]: 87
